test system: human Factor XI mRNA; assay: Dose-dependent inhibition in HepB3 cells, lipofectin (Example 7); assay type: cell-based; conditions: 37.5 nM, approx. 16 h
ENDPOINT LABEL: percent inhibition of human Factor XI mRNA (%)
Write the value in % as a bare number.

Below are worked cases with known answers.
{"SUBSTANCE": "416850 (antisense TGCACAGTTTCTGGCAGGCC; 5-10-5 gapmer, wing sugar chemistry not given here, further chemistry not given here) [compound 416850]", "UNITS LABEL": "%", "READOUT NUMBER": 75}
{"SUBSTANCE": "417002 (antisense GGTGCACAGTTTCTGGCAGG; 2-13-5 gapmer, wing sugar chemistry not given here, further chemistry not given here) [compound 417002]", "UNITS LABEL": "%", "READOUT NUMBER": 71}

Kindly consider the entry below.
Record request: percent inhibition of human Factor XI mRNA value, item 416826 (antisense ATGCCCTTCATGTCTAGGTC; 5-10-5 gapmer, wing sugar chemistry not given here, further chemistry not given here) [compound 416826] 64

====

experiment: Cynomolgus monkeys: hematology assays (Example 29); assay type: in vivo; details: day 29
In the oligonucleotide strings, read from the 5' end, every base follows the letter of its sugar. An asterisk marks phosphorothioate; unmarked linkages are phosphodiester. Other units and linkages are bracketed, terminal groups are in braces. A string of capitals states the bases alone. e = 2'-O-(2-methoxyethyl) (MOE); [5mC] = 5-methylcytosine; d = 2'-deoxy (DNA)
Reported values of platelet count for individual entries
Write the value in µL⁻¹ as a bare number.

Below are worked cases with known answers.
{"SUBSTANCE": "ISIS 416864: gapmer of Table 8 (antisense eG*eG*e[5mC]*eA*eG*d[5mC]*dG*dG*dA*d[5mC]*dG*dG*d[5mC]*dA*dT*eT*eG*eG*eT*eG)", "platelet count (µL⁻¹)": 397000}
{"SUBSTANCE": "ISIS 416850: gapmer of Table 8 (antisense eT*eG*e[5mC]*eA*e[5mC]*dA*dG*dT*dT*dT*d[5mC]*dT*dG*dG*d[5mC]*eA*eG*eG*e[5mC]*e[5mC])", "platelet count (µL⁻¹)": 475000}
{"SUBSTANCE": "ISIS 417002: gapmer of Table 8 (antisense eG*eG*dT*dG*d[5mC]*dA*d[5mC]*dA*dG*dT*dT*dT*d[5mC]*dT*dG*eG*e[5mC]*eA*eG*eG)", "platelet count (µL⁻¹)": 410000}
{"SUBSTANCE": "ISIS 416858: gapmer of Table 8 (antisense eA*e[5mC]*eG*eG*e[5mC]*dA*dT*dT*dG*dG*dT*dG*d[5mC]*dA*d[5mC]*eA*eG*eT*eT*eT)", "platelet count (µL⁻¹)": 336000}

Kindly consider the entry below.
Record request: platelet count value, item ISIS 416838: gapmer of Table 6 (antisense eG*e[5mC]*eA*eA*e[5mC]*d[5mC]*dG*dG*dG*dA*dT*dG*dA*dT*dG*eA*eG*eT*eG*e[5mC]) 337000

====

Tested on: IL-1β, IL-6, IFN-γ, TNF-α, IL-8, MIP-1α, MCP-1, MIP-10, RANTES
Test: Cynomolgus monkeys: cytokine and chemokine assays (Example 30)
Format: in vivo
Conditions: day −14 (before start of treatment)
Description: Groups, each consisting of two male and two female monkeys, were injected subcutaneously with 25 mg/kg of ISIS 416850, ISIS 449709, ISIS 445522, ISIS 449710, ISIS 449707, ISIS 449711, ISIS 449708, 416858 and ISIS 445531. […] Body weights were taken 14 days and 7 days before the start of treatment and were then measured weekly throughout the treatment period. […]
In the oligonucleotide strings, read from the 5' end, every base follows the letter of its sugar. An asterisk marks phosphorothioate; unmarked linkages are phosphodiester. Other units and linkages are bracketed, terminal groups are in braces. A string of capitals states the bases alone. e = 2'-O-(2-methoxyethyl) (MOE); [5mC] = 5-methylcytosine; d = 2'-deoxy (DNA)
Reported values of IL-1β level for individual entries

Below are worked cases with known answers.
{"SUBSTANCE": "ISIS 449710: microwalk gapmer of Table 53 (antisense e[5mC]*eA*e[5mC]*dA*dG*dT*dT*dT*d[5mC]*dT*dG*dG*d[5mC]*eA*eG*eG)", "RESULT": "271 pg/mL"}
{"SUBSTANCE": "ISIS 449709: microwalk gapmer of Table 53 (antisense eG*e[5mC]*eA*e[5mC]*dA*dG*dT*dT*dT*d[5mC]*dT*dG*dG*d[5mC]*eA*eG*eG*e[5mC])", "RESULT": "137 pg/mL"}
{"SUBSTANCE": "ISIS 445522: microwalk gapmer of Table 51 (antisense eG*e[5mC]*eA*e[5mC]*eA*dG*dT*dT*dT*d[5mC]*dT*dG*dG*e[5mC]*eA*eG*eG*e[5mC])", "RESULT": "188 pg/mL"}

Record request: IL-1β level value, item ISIS 416858: gapmer of Table 8 (antisense eA*e[5mC]*eG*eG*e[5mC]*dA*dT*dT*dG*dG*dT*dG*d[5mC]*dA*d[5mC]*eA*eG*eT*eT*eT) 103 pg/mL

====

test system: Factor XI protein; assay: Cynomolgus monkeys: plasma Factor XI protein ELISA (Example 29); type: in vivo; conditions: escalating doses 5, 10, 25 mg/kg s.c., day 85
In the oligonucleotide strings, read from the 5' end, every base follows the letter of its sugar. An asterisk marks phosphorothioate; unmarked linkages are phosphodiester. Other units and linkages are bracketed, terminal groups are in braces. A string of capitals states the bases alone. e = 2'-O-(2-methoxyethyl) (MOE); [5mC] = 5-methylcytosine; d = 2'-deoxy (DNA)
ENDPOINT LABEL: Inhibition of Factor XI protein relative to the PBS control (%)
Write the value in % as a bare number.

Below are worked cases with known answers.
{"SUBSTANCE": "ISIS 416850: gapmer of Table 8 (antisense eT*eG*e[5mC]*eA*e[5mC]*dA*dG*dT*dT*dT*d[5mC]*dT*dG*dG*d[5mC]*eA*eG*eG*e[5mC]*e[5mC])", "UNITS LABEL": "%", "READOUT NUMBER": 64}
{"SUBSTANCE": "ISIS 416838: gapmer of Table 6 (antisense eG*e[5mC]*eA*eA*e[5mC]*d[5mC]*dG*dG*dG*dA*dT*dG*dA*dT*dG*eA*eG*eT*eG*e[5mC])", "UNITS LABEL": "%", "READOUT NUMBER": 10}
{"SUBSTANCE": "ISIS 416864: gapmer of Table 8 (antisense eG*eG*e[5mC]*eA*eG*d[5mC]*dG*dG*dA*d[5mC]*dG*dG*d[5mC]*dA*dT*eT*eG*eG*eT*eG)", "UNITS LABEL": "%", "READOUT NUMBER": 8}
{"SUBSTANCE": "ISIS 417002: gapmer of Table 8 (antisense eG*eG*dT*dG*d[5mC]*dA*d[5mC]*dA*dG*dT*dT*dT*d[5mC]*dT*dG*eG*e[5mC]*eA*eG*eG)", "UNITS LABEL": "%", "READOUT NUMBER": 23}

Kindly consider the entry below.
Record request: Inhibition of Factor XI protein relative to the PBS control value, item ISIS 416858: gapmer of Table 8 (antisense eA*e[5mC]*eG*eG*e[5mC]*dA*dT*dT*dG*dG*dT*dG*d[5mC]*dA*d[5mC]*eA*eG*eT*eT*eT) 78

====

experiment: Tolerability in CD1 mice: body and organ weight (Example 25); format: in vivo; settings: 50 mg/kg s.c. twice per week for 6 weeks, end of study
In the oligonucleotide strings, read from the 5' end, every base follows the letter of its sugar. An asterisk marks phosphorothioate; unmarked linkages are phosphodiester. Other units and linkages are bracketed, terminal groups are in braces. A string of capitals states the bases alone. e = 2'-O-(2-methoxyethyl) (MOE); [5mC] = 5-methylcytosine; d = 2'-deoxy (DNA)
ENDPOINT LABEL: Liver weight as percentage of body weight (%)
Write the value in % as a bare number.

Below are worked cases with known answers.
{"SUBSTANCE": "ISIS 445532: microwalk gapmer of Table 51 (antisense e[5mC]*eG*eG*e[5mC]*eA*dT*dT*dG*dG*dT*dG*d[5mC]*dA*e[5mC]*eA*eG*eT*eT)", "UNITS LABEL": "%", "READOUT NUMBER": 6}
{"SUBSTANCE": "ISIS 445513: microwalk gapmer of Table 51 (antisense eG*e[5mC]*eA*eG*e[5mC]*eG*dG*dA*d[5mC]*dG*dG*d[5mC]*dA*dT*eT*eG*eG*eT*eG*e[5mC])", "UNITS LABEL": "%", "READOUT NUMBER": 5}
{"SUBSTANCE": "ISIS 445505: microwalk gapmer of Table 51 (antisense e[5mC]*eG*eG*e[5mC]*eA*eT*dT*dG*dG*dT*dG*d[5mC]*dA*d[5mC]*eA*eG*eT*eT*eT*e[5mC])", "UNITS LABEL": "%", "READOUT NUMBER": 6}
{"SUBSTANCE": "ISIS 416850: gapmer of Table 8 (antisense eT*eG*e[5mC]*eA*e[5mC]*dA*dG*dT*dT*dT*d[5mC]*dT*dG*dG*d[5mC]*eA*eG*eG*e[5mC]*e[5mC])", "UNITS LABEL": "%", "READOUT NUMBER": 6}
{"SUBSTANCE": "ISIS 445503: microwalk gapmer of Table 51 (antisense eG*e[5mC]*eA*eT*eT*eG*dG*dT*dG*d[5mC]*dA*d[5mC]*dA*dG*eT*eT*eT*e[5mC]*eT*eG)", "UNITS LABEL": "%", "READOUT NUMBER": 8}

Record request: Liver weight as percentage of body weight value, item ISIS 445509: microwalk gapmer of Table 51 (antisense e[5mC]*eG*eG*eA*e[5mC]*eG*dG*d[5mC]*dA*dT*dT*dG*dG*dT*eG*e[5mC]*eA*e[5mC]*eA*eG) 6
